Tested on: HOP-62 NSCLC
Assay: NCI tumour cell line growth inhibition, 48 h

compound	GI50
CCN=c1cc2sc3cc(NCC)c(C)cc3nc-2cc1C	2090 nM
O=CN1N=C(c2ccc(Cl)cc2)CC1c1cccc(Nc2ccnc3cc(Cl)ccc23)c1 (centres undefined)	1210 nM
COc1ccc(C2=C(c3ccc(OC)c(OC)c3)C(=O)OC2)cc1	< 10 nM
CC/C(=C(/CC)c1ccc(O)cc1)c1ccc([O-])cc1.CC/C(=C(/CC)c1ccc(O)cc1)c1ccc([O-])cc1.O=C([CH-]C(=O)c1ccccc1)c1ccccc1.O=C([CH-]C(=O)c1ccccc1)c1ccccc1.[Ti+4]	14700 nM

====

Tested on: HCT-15 colon
Assay: NCI tumour cell line growth inhibition, 48 h; in the data active means GI50 below about 0.43 µM; inactive means the rest
Classes used: active, inactive

smiles-repr	experimental-target	discrete-label
COc1cccc(-c2nc3sccn3c2-c2ccnc(NCCNS(=O)(=O)c3ccccc3)c2)c1	HCT-15 colon	inactive
NC1CCCCC1N.O=S(=O)([O-])CCCN1CCOCC1.O=S(=O)([O-])CCCN1CCOCC1.[Pt+4]	HCT-15 colon	inactive
NC(=O)c1ccc2c(-c3ccnc(NCCCO)n3)c(-c3ccc(F)cc3)nn2c1	HCT-15 colon	inactive
Cc1ccc(NC(=O)CC(=O)n2nc(-c3ccccc3)c(N=Nc3ccccc3Cl)c2-c2ccccc2)cc1	HCT-15 colon	inactive
COC(=O)c1c2c(c(C)[n+]([O-])c1C)C(=O)C=C(NCc1ccc(OC)cc1)C2=O	HCT-15 colon	inactive
Nc1ccc2c3c(n(CCCCl)c(=O)c2c1)-c1cc2c(cc1C3=O)OCO2	HCT-15 colon	inactive
O=C([CH-]C(=O)c1ccccc1)c1ccccc1.O=C([CH-]C(=O)c1ccccc1)c1ccccc1.O=C([CH-]C(=O)c1ccccc1)c1ccccc1.[OH3+].[Y+3]	HCT-15 colon	inactive
O=S(=O)(c1ccc(N=C2NN=C(c3c[nH]c4ccccc34)CS2)cc1)N1CCOCC1	HCT-15 colon	inactive
COc1cc2cc(C(=O)Nc3cc(N)c4ccccc4c3CCCl)[nH]c2c(OC)c1OC	HCT-15 colon	active
COc1ccc(C2=C(c3ccc(OC)c(OC)c3)C(=O)OC2)cc1	HCT-15 colon	active
COc1ccc(-c2nc3ncccn3c2/C=C/C(=O)c2cc(OC)c(OC)c(OC)c2)cc1	HCT-15 colon	inactive
c1cc(OCCN2CCCCC2)ccc1CNc1ccc2nc(CCC3CCCCC3)[nH]c2c1	HCT-15 colon	inactive

====

Tested on: SW-620 colon
Experiment: NCI tumour cell line growth inhibition, 48 h
assay-readout: TGI

compound	result
O=c1[nH]c(=S)[nH]n1C(=S)n1[nH]c(=S)[nH]c1=O	> 100 µM
Nc1nc(=S)[nH]c(C(=O)Nc2ccc(Cl)c(Cl)c2)c1-c1ccc(Cl)cc1	> 100 µM
Cc1cc(NCCCCCCCCCC[n+]2c(C)cc(N)c3ccccc32)c2ccccc2n1	21.2 µM
CCOc1ccc(Nc2nc(-c3ccc4c(c3)NC(=O)CO4)cs2)cc1	> 100 µM
COc1cc2c(cc1OCCCCCCN1CCN(c3ncnc4ccccc34)CC1)N=CC1CCCN1C2=O (stereo unspecified)	0.566 µM
[N-]=[NH+]CC(=O)OC(COCc1ccccc1)COCc1ccccc1	> 100 µM
C=C(C)CN(CC#N)CC(=C)C	> 100 µM
O=[N+]([O-])c1ccc(N=Nc2c(O)ccc3ccccc23)cc1	> 100 µM
C(=NCc1ccccc1)c1ccccc1-c1ccccc1C=NCc1ccccc1	> 10 µM
C/C(=N/O)c1cccc(Nc2nc3ccc(Cl)cc3c3[nH]c4ccccc4c23)c1	5.03 µM
CC1=C2C[C@H]3[C@@H](CC=C4C[C@@H](O)CC[C@@]43C)[C@@H]2CC[C@]12O[C@@H]1C[C@H](C)CN[C@H]1[C@H]2C	> 100 µM
COc1ccc(-c2c(CN3CCOCC3)sc3nc4ccccc4n23)cc1	> 100 µM
CC(C)(C)[Si](C)(C)OCC1CCC(n2cnc3c(N)ncnc32)O1 (stereo unspecified)	> 100 µM
NC(=O)c1ccc2c(-c3ccnc(NCCCO)n3)c(-c3ccc(F)cc3)nn2c1	> 25 µM
Cc1nn(-c2ccccc2)c2[nH]c(=S)cnc12	> 100 µM
[O-][n+]1onc(-c2ccccc2)c1CN1CCOCC1	> 100 µM
COC(=O)C12C3C4C5C3(C#N)C1C5(C(=O)OC)C42C(=O)N(C(C)C)C(C)C (stereo unspecified)	> 65.3 µM
COc1ccc2c(c1)CCc1[nH]c3ccccc3c1CCCC2	> 10 µM
CCOC(=O)[C@@H]1ON2O[C@H](OC3CCCC3(c3ccccc3)c3ccccc3)C[C@H]3OC(=O)[C@@H]1C32 (stereo partly specified)	> 100 µM
O=C(Nc1cc[c]([Sb](=[O])([OH])[OH])cc1)c1ccccc1	> 100 µM
COc1ccc2cc(/C=N\NC(=O)Nc3cccc4ccccc34)ccc2c1	> 100 µM
